Experimental System: human SGLT2 (Homo sapiens)
Assay Text: SGLT2 assay: Na-dependent 14C-AMG uptake in CHO-K1 cells stably expressing human SGLT2
Condition Label: average if tested more than once
Please go through the items and note down their IC50.
Give bare numbers, in µM.

Answered cases to consult:
COc1cc(O)c([C@@H]2O[C@H](CO)[C@@H](F)[C@H](O)[C@H]2O)cc1Cc1cc2c(s1)CCN(C#N)C2
0.008
Cc1c(Cc2ccc3c(c2)SCCO3)cc([C@@H]2O[C@H](CO)[C@@H](F)[C@H](O)[C@H]2O)c2c1CCO2
0.023
OC[C@H]1O[C@@H](c2cc(Cc3cc4ccccc4s3)c(C3CC3)cc2O)[C@H](O)[C@@H](O)[C@@H]1F
0.062

Quick one: give me IC50 for each item below, same order please.
1. Cc1cc(O)c([C@@H]2O[C@H](CO)[C@@H](F)[C@H](O)[C@H]2O)cc1Cc1cc2c(s1)CCN(C(=O)N1CCCC1)C2
2. [2H]C([2H])(c1ccc2c(c1)OCCO2)c1cc([C@@H]2O[C@H](CO)[C@@H](F)[C@H](O)[C@H]2O)c(F)cc1OC

[out]
1. 0.014
2. 0.016

---

I'd be grateful if you could share measured SGLT2 %-inhibition for these entries.
Experimental System: human SGLT2 (Homo sapiens, UniProt P31639)
Construct: expressed in transfected cells
Sequence (P31639 1-672): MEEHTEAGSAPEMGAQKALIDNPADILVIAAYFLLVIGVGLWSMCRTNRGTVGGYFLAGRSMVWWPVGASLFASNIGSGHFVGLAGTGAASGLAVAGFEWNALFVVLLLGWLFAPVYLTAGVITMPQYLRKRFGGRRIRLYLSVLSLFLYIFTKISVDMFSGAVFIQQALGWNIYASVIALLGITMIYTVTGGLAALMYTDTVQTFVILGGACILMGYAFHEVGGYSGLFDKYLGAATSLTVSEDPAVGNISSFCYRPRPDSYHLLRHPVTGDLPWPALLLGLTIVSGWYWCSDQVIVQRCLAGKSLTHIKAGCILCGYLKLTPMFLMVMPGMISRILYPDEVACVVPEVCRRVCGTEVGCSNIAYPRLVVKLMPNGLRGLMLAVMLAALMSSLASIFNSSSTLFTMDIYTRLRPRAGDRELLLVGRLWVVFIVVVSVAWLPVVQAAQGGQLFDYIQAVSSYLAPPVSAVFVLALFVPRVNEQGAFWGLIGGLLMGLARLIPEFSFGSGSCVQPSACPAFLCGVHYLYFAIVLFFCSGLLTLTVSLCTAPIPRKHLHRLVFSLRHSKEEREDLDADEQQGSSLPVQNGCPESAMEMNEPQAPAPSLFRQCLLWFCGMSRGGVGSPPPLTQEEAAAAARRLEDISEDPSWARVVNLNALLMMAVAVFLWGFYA
Assay Text: SGLT2 assay: Na-dependent 14C-AMG uptake in CHO-K1 cells stably expressing human SGLT2
Format: cell-based
Condition Label: @ 0.3 μM
Numbers only, in % @ 0.3 μM.

Cc1cnc(N2CCc3sc(Cc4cc([C@@H]5O[C@H](CO)[C@@H](F)[C@H](O)[C@H]5O)ccc4C)cc3C2)s1 [Compound 113]
53.9
CN1CCCc2ccc(Cc3cc([C@@H]4O[C@H](CO)[C@@H](F)[C@H](O)[C@H]4O)cc4c3OCC4)cc21 [Compound 94]
19.2

Now turn to the next compound.
Value of SGLT2 %-inhibition reported for the compound COc1cc(Cl)c(Cc2cc3c(s2)CCN(C(=O)c2nccs2)C3)cc1[C@@H]1O[C@H](CO)[C@@H](F)[C@H](O)[C@H]1O [Compound 106] is 82.1

Every entry's value here was drawn from patent US11014917B2.
